system: BT-474; assay: viability inhibition at highest dose (% inhibition); higher = more growth inhibition; details: 4-OH-tamoxifen in medium 1 µM; 72 h
MEASURED_ATTRIBUTE: viability inhibition at highest dose
Format: numeric value only, no unit, no commentary.

COMPOUND | viability inhibition at highest dose
Cc1ccc(-n2nc(C(C)(C)C)cc2NC(=O)Nc2ccc(OCCN3CCOCC3)c3ccccc23)cc1 [Doramapimod (BIRB 796)] (drug 10000 nM) | 15

# viability inhibition at highest dose of S=P(N1CC1)(N1CC1)N1CC1 [Thio-TEPA] (drug 100000 nM) = -5.3

# viability inhibition at highest dose of COc1ncc(-c2ccc3nccc(-c4ccnnc4)c3c2)cc1NS(=O)(=O)c1ccc(F)cc1F (drug 1000 nM) = 97.1

# viability inhibition at highest dose of CCCS(=O)(=O)Nc1ccc(F)c(C(=O)c2c[nH]c3ncc(-c4ccc(Cl)cc4)cc23)c1F [Vemurafenib (PLX4032)] (drug 10000 nM) = 16.2

====

Recorded viability inhibition at highest dose, one value per entry.
test system: T-47D Tam2; assay: viability inhibition at highest dose (% inhibition); higher = more growth inhibition; settings: 4-OH-tamoxifen in medium 1 µM; 72 h
Where a name gives a salt, the structure may show the parent alone.

MOLECULE | viability inhibition at highest dose
Cc1c(N)nc([C@H](CC(N)=O)NC[C@H](N)C(N)=O)nc1C(=O)N[C@H](C(=O)N[C@H](C)[C@@H](O)[C@H](C)C(=O)N[C@H](C(=O)NCCc1nc(-c2nc(C(=O)NCCC[S+](C)C)cs2)cs1)[C@@H](C)O)[C@@H](OC1OC(CO)C(O)C(O)C1OC1OC(CO)C(O)C(OC(N)=O)C1O)c1cnc[nH]1 (stereo partly drawn) [Bleomycin] (drug 10000 nM) | -17.7
CC(C)(C)NC(=O)[C@H]1CC[C@H]2[C@@H]3CC[C@H]4NC(=O)C=C[C@]4(C)[C@H]3CC[C@]12C [Finasteride] (drug 10000 nM) | 18
COc1cc(F)c(F)c(Nc2ccc(I)cc2F)c1NS(=O)(=O)C1(C[C@H](O)CO)CC1 [Refametinib (RDEA119)] (drug 10000 nM) | 22
CN(N=O)C(=O)N[C@@H](C=O)[C@@H](O)[C@H](O)[C@H](O)CO [Streptozocin] (drug 10000 nM) | 9.65
Cc1ccc(C(=O)N(CCCN)[C@@H](c2oc3cc(Cl)ccc3c(=O)c2Cc2ccccc2)C(C)C)cc1 (drug 100 nM) | 7.13
CNNCc1ccc(C(=O)NC(C)C)cc1 [Procarbazine] (drug 10000 nM) | 18.8

viability inhibition at highest dose on T-47D Tam2 for CC(C)Cn1cnc2c(N)nc3ccccc3c21 [Imiquimod] (drug 10000 nM) is 15.3

viability inhibition at highest dose on T-47D Tam2 for CCCCCCCCc1ccc(CCC(N)(CO)CO)cc1 [Fingolimod] (drug 10000 nM) is 59.1

viability inhibition at highest dose on T-47D Tam2 for NCCCNCCSP(=O)(O)O [Amifostine] (drug 10000 nM) is 7

viability inhibition at highest dose on T-47D Tam2 for C[C@]12C=CC(=O)C=C1CC[C@@H]1[C@@H]2[C@@H](O)C[C@@]2(C)[C@H]1CC[C@]2(O)C(=O)CO [Prednisolone] (drug 10000 nM) is 6.88

viability inhibition at highest dose on T-47D Tam2 for C/C(=C\c1csc(C)n1)[C@@H]1C[C@@H]2O[C@]2(C)CCC[C@H](C)[C@H](O)[C@@H](C)C(=O)C(C)(C)[C@@H](O)CC(=O)O1 [Patupilone (Epothilone B)] (drug 1000 nM) is 33.4

viability inhibition at highest dose on T-47D Tam2 for CCCC(CCC)C(=O)O [Valproic acid] (drug 10000 nM) is 24.2

viability inhibition at highest dose on T-47D Tam2 for O=C(/C=C/c1cccnc1)NCCCCC1CCN(C(=O)c2ccccc2)CC1 [Daporinad (FK-866 HCl)] (drug 1000 nM) is 85.3

This collection of values is drawn from the supplement of paper PMC4932681.
